B1: Azoarcus group I ribozyme (parent)
chain: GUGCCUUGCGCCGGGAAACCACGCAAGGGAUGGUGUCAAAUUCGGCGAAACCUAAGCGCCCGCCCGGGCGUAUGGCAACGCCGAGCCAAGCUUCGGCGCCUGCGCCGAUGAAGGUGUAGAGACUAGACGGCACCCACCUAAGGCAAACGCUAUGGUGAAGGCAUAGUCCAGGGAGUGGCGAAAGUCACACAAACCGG

variants of: B1; assay: reverse-splicing fitness (ratio to wild type); higher = more active; in vitro selection; Mg2+ level not given
Kindly state reverse-splicing fitness for each of the entries shown.
The answer should be written as a number, with no unit following it.

Please give the measured reverse-splicing fitness for this variant: C82G A111G A145U U176C
0.28

// query: A111U A145C C150U C169G U176A
0.0212

Let us now turn to C82G A111C A120C A145U C150U C169A
0.0102

# iterate: C82G A120U A145U C150G C169G U176G
0.00182

Subsequent entry: C82A A111C A120U A145U C169U U176C
0.00253

Likewise for C82A A120G A145U C150U C169U U176A ?
0.0201

Input C82U A111U A120G A145C C150U C169A U176G
0.00482

For A111U A120G A145C C150U C169A U176G then?
0.00531

Try A111G A120U A145U C150G C169U U176A next.
0.00269

// query: C82G A111G A145G C150U C169U U176G
0.00678

Same for A111C A120C A145U C150A C169G U176A
0.0127

Data origin, for the record: the RNAGym collection of RNA variant scans (doi:10.1093/molbev/msab373)
